System: SR leukemia
Assay: NCI-60 one-dose screen, 48 h (100 = growth as untreated, 0 = no growth, -100 = all killed)
Details: 10 µM unless noted
Description: Growth inhibition of the SR human tumor cell line is measured as a screen for anti-cancer activity. Cells are grown in 96 well plates and exposed to the test compound for 48 hours. Compounds are tested at a single concentration, which is 10^-5 M for most compounds. The reported endpoint is percent growth (GI% or GIPRCNT), where numbers from 0 - 100% represent growth inhibition, and numbers from -100% - 0 represent cell death. For example, a value of 40 represents 60% growth inhibition. […]
The panel holds about 83,000 compounds, 20% with a hit somewhere; the sample as a whole holds those more often.
ENDPOINT_LABEL: growth (%)
Dear colleague, please return just the value in %, with no unit written.

CCOC(=O)C1=C(C(=O)OCC)N(c2cc(OC)c(OC)c(OC)c2)C(N)=C(C#N)C1c1cc(=O)[nH]c2ccccc12 (stereo unspecified); 93.5
CCCCCCCCN(CCCCCCCC)C(=O)CCl; 83.1
CCOC(=O)C#Cc1c(C(=O)OCC)nnn1[C@@H]1O[C@H](COC(C)=O)[C@@H](OC(C)=O)[C@H]1OC(C)=O; 22.8

Name the reported growth value associated with the molecule COc1ccc(CNc2c3ccccc3nc3ccc(OC)cc23)cc1
-15.5

Name the reported growth value associated with the molecule Cc1nc(N)nc2c1CCC(Nc1ccccc1)S2 (stereo unspecified)
59.2

Name the reported growth value associated with the molecule c1ccc2c(N=NSc3ncnc4nc[nH]c34)c3ccccc3nc2c1
-28.1

Name the reported growth value associated with the molecule Nc1c(C(=O)Nc2ccccc2)sc2nc3c(cc12)C(=O)CCC3
21.9

Name the reported growth value associated with the molecule COc1ccc2c(c1)C1=NN(C(=O)CO)[C@H](c3ccc(OC(F)(F)F)cc3)[C@@H]1CC2
69.2

Name the reported growth value associated with the molecule C=C1C(=O)O[C@H]2[C@H]1CC/C(COC(=O)NCc1c[nH]c3ccc(OC)cc13)=C\CC[C@@]1(C)O[C@@H]21
8.82

Name the reported growth value associated with the molecule O=C(CCl)Nc1cc(O)c2c(c1)C(=O)c1cccc(O)c1C2=O
-35.5

Name the reported growth value associated with the molecule COc1ccc(CNc2c3ccccc3nc3ccccc23)cc1F
4.85

Name the reported growth value associated with the molecule COc1ccc(C(=O)OC2C(OC3C(O)COC(O[C@H]4C[C@H]5[C@@H]6CC=C7C[C@@H](O)CC[C@]7(C)[C@H]6CC[C@]5(C)[C@H]4[C@H](C)C(=O)CCC(C)C)C3OC(=O)C(C)C)OCC(O)C2O)cc1 (stereo partly specified)
5.59

---

Measured growth, listed per entry for reference.
Test system: RXF 393 renal
Test: NCI-60 one-dose screen, 48 h (100 = growth as untreated, 0 = no growth, -100 = all killed)
Conditions: 10 µM unless noted
Procedure: Cells are grown in 96 well plates and exposed to the test compound for 48 hours. Compounds are tested at a single concentration, which is 10^-5 M for most compounds. The reported endpoint is percent growth (GI% or GIPRCNT), where numbers from 0 - 100% represent growth inhibition, and numbers from -100% - 0 represent cell death. For example, a value of 40 represents 60% growth inhibition. A value of 0 means no net growth occurred over the course of the experiment. […]
About 83,000 compounds went through this panel and 20% of them were active in at least one assay; those are over-represented in the sample as a whole.
Dear colleague, please return just the value in %, with no unit written.

Sample records with growth:
O=C1Nc2ccc(Cl)cc2/C1=C\c1c(-c2ccc(F)cc2)nc2ccccn12; -13.4
Fc1ccc(-c2nc(-c3ccc(-c4nc5ccc(F)cc5[nH]4)cc3)no2)cc1; 79.8
COc1cc(C2C(C#N)=C(N)Oc3cc4c(cc32)OCO4)cc2c1OCO2 (stereo unspecified); -12.1

Name the reported growth value associated with the compound c1cc2c(cc1-c1cnc3nonc3n1)OCO2
122

Name the reported growth value associated with the compound Cc1cc(Nc2c3ccccc3nc3ccccc23)ccc1NS(C)(=O)=O
35

---

Measured growth, listed per entry for reference.
system: HCT-116 colon; test: NCI-60 one-dose screen, 48 h (100 = growth as untreated, 0 = no growth, -100 = all killed); details: 10 µM unless noted
This is part of a sample that, as a whole, favours compounds with a hit. Of some 83,000 tested, about 20% had one in any assay.
Dear colleague, please return just the value in %, with no unit written.

Fc1ccc(-c2nc(-c3ccc(-c4nc5ccc(F)cc5[nH]4)cc3)no2)cc1; 73
COc1cc(-c2nc(-c3ccc(-c4nc5ccc(F)cc5[nH]4)cc3)no2)cc(OC)c1OC; 28.2
COc1ccccc1CNCCCN1C(=O)c2ccc3c4c(ccc(c24)C1=O)C(=O)N(CCCNCCCN)C3=O; -1.03
c1csc(-c2cnc3nonc3n2)c1; 66.6
COc1cc(C2C(C#N)=C(N)Oc3cc4c(cc32)OCO4)cc2c1OCO2 (stereo unspecified); 11

# next compound below
Name the reported growth value associated with the compound c1cc2c(cc1-c1cnc3nonc3n1)OCO2
102

---

tested on: SNB-75 CNS; assay: NCI-60 one-dose screen, 48 h; conditions: 10 µM unless noted
The panel holds about 83,000 compounds, 20% with a hit somewhere; the sample as a whole holds those more often. The source made the active and inactive calls. How the source made its calls: active means growth percent below 10; inactive means the rest.
Can you answer with just one of these options? true (1) = active, false (0) = inactive

Answered cases to consult:
CCn1c(=O)c(C(=O)NCCCO)c(O)c2ccccc21; false (0)
COc1ccccc1CNCCCN1C(=O)c2ccc3c4c(ccc(c24)C1=O)C(=O)N(CCCCNCCCN)C3=O; false (0)
CC1OC(n2c3ccccc3c3c4c(c5c6ccccc6[nH]c5c32)C(=O)N(CCN[C@H]2CCC[C@@H]2N)C4=O)CC(O)C1O (some centres undefined); false (0)

Could you check what this test reported for CS(=O)(=O)c1ccc(C(=O)Nc2ccc(Cl)c(-c3ccccn3)c2)c(Cl)c1 ?
false (0)

Could you check what this test reported for ClCc1c(Cl)c(Cl)c(Cl)c(CCl)c1Cl ?
false (0)

Could you check what this test reported for CN(C)c1nc(-c2cccs2)n2nc(-c3ccc(Cl)cc3)cc2n1 ?
true (1)

Could you check what this test reported for Oc1ccc(-c2nnc3c4[nH]ccc4ncn23)cc1 ?
false (0)

Could you check what this test reported for COc1cc(C2CC(c3ccc(C)cc3)=NN2C=O)ccc1Oc1ccnc2cc(Cl)ccc12 (centres undefined) ?
true (1)

---

tested on: M14 melanoma; test: NCI-60 one-dose screen, 48 h (100 = growth as untreated, 0 = no growth, -100 = all killed); settings: 10 µM unless noted
This is part of a sample that, as a whole, favours compounds with a hit. Of some 83,000 tested, about 20% had one in any assay.
Lab note: compare growth against 90%. Equal or greater, write rule met. Smaller, write rule not met.

Cc1ccc(C(CN(C)C)C(=O)c2ccccc2)cc1 (stereo unspecified); rule not met
CCCCOC(=O)c1cc(O)c(O)c(O)c1; rule not met

Textbook exercise: given the entry c1ccc2oc(-c3cnc4nonc4n3)cc2c1 , state whether its growth is greater than or equal to 90%.
rule met

Textbook exercise: given the entry Clc1ccc(-c2cnc3c(-c4ccnc(N5CCNCC5)c4)cnn3c2)cc1 , state whether its growth is greater than or equal to 90%.
rule not met

Textbook exercise: given the entry CCN(CC)c1ccc(/C=N/NC(=O)C[N+](C)(C)C)cc1 , state whether its growth is greater than or equal to 90%.
rule met

Textbook exercise: given the entry C=CCN(CC#N)CC=C , state whether its growth is greater than or equal to 90%.
rule met

Textbook exercise: given the entry O=c1c2cc(Cl)ccc2oc2ccc(OCCCCCN3CCCCC3)cc12 , state whether its growth is greater than or equal to 90%.
rule not met

Textbook exercise: given the entry CC1=CC(=O)OC1C/C=C(\C)CCC1[C@@]2(C)CCC[C@@](C)(C(=O)O)C2CC[C@@]1(C)O (stereo partly specified) , state whether its growth is greater than or equal to 90%.
rule not met

Textbook exercise: given the entry CN(C)N1C(=O)c2c(Cl)c(Cl)c(Cl)c(Cl)c2C1=O , state whether its growth is greater than or equal to 90%.
rule met

Textbook exercise: given the entry CCNC(=O)c1ccc2c(c1)nc(-c1ccc(Cl)cc1)n2-c1cc(C(C)(C)C)[nH]n1 , state whether its growth is greater than or equal to 90%.
rule not met

---

test system: COLO 205 colon; assay: NCI-60 one-dose screen, 48 h (100 = growth as untreated, 0 = no growth, -100 = all killed); conditions: 10 µM unless noted
The panel holds about 83,000 compounds, 20% with a hit somewhere; the sample as a whole holds those more often.
ENDPOINT_LABEL: growth (%)
Dear colleague, please return just the value in %, with no unit written.

Sample records with growth:
S=C(Nc1ccc(Cl)cc1)Nc1ccc(Cl)cc1 (tested in a mixture with another compound); -95.7
CC(C)(C)c1nn(-c2ccccc2)c2c1C(=O)CSC(c1ccccc1Cl)N2 (centres undefined); 2.17
COc1cccc(N2CCN(c3ncnc4cc[nH]c34)CC2)c1; 88.2

Name the reported growth value associated with the compound CCSc1cnnc2ccccc12
111

Name the reported growth value associated with the compound CCOC(=O)Nc1ccc2nc(N3CCCCCC3)sc2c1
-7.85

Name the reported growth value associated with the compound COc1cc(/C=C\c2cc(/C=C\c3ccc(O)c(OC)c3)n(C(=O)Nc3ccc(C(F)(F)F)cc3)n2)ccc1O
51.3

Name the reported growth value associated with the compound COc1cc(OC)c(Cl)cc1N
115

Name the reported growth value associated with the compound CN(C)c1nc(-c2cccs2)n2nc(-c3ccco3)cc2n1
126

Name the reported growth value associated with the compound COc1ccc(C(=O)OC2C(OC3C(O)COC(O[C@H]4C[C@H]5[C@@H]6CC=C7C[C@@H](O)CC[C@]7(C)[C@H]6CC[C@]5(C)[C@H]4[C@H](C)C(=O)CCC(C)C)C3OC(=O)C(C)C)OCC(O)C2O)cc1 (some centres undefined)
-47.9
